System: ATP;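 also: ATP exposure 15 min at 22 °C before imaging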
Assay: switch fluorescence ratio, 500 uM ATP over buffer (Cy3 cluster intensity, sum of 5 cycles each) (fold (ratio)); higher = stronger signal-on switching upon ATP binding; sequences stand for … in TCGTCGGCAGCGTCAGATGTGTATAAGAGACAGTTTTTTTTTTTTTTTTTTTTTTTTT…TC
Details: aptamer strand: ATP DNA aptamer (quencher-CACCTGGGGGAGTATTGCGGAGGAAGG + anchor), 100 nM annealed; ATP concentration: 500 uM
endpoint-name: switch fluorescence ratio

>>> print(df.to_string())
   seq_string  observed_measurement
0  GTAGTTGGAA                 0.997
1  TAAAGGTCAG                 0.996
2  TCCTGCTGTT                 0.998
3  CGTGGGTGGT                  1.02
4  AGGGTAAGTC                 0.972
5  AGAAGTGGAG                     1
